# Test system: pregnancy in rats
# method_notes: Early abortive action in rats after subcutaneous administration from the 5th to 7th day of pregnancy
# Type: in vivo, rat
# measurement_parameters: s.c., day 5-7 of pregnancy, 1 mg/animal/day, nonpregnant females/paired females
Please respond with reported Complete Inhibition of Pregnancy (empty uteri) N#/N for every item in the list.

Some solved entries appear below for comparison.
molecule	reported_result
CC12CC(c3ccc(C=NO)cc3)C3=C4CCC(=O)C=C4CCC3C1CCC2(O)C(F)(F)F (stereo not drawn)	4/4
CC(=O)c1ccc([C@H]2C[C@@]3(C)[C@@H](CC[C@@]3(O)C(F)(F)C(F)(F)F)[C@@H]3CCC4=CC(=O)CCC4=C32)cc1 [ZK 230 211, reference compound]	3/4
COC1(C(F)(F)C(F)(F)F)CCC2C3CCC4=CC(=O)CCC4=C3C(c3ccc(C=NO)cc3)CC21C (stereo not drawn)	2/4
CC12CC(c3ccc(C=NO)cc3)C3=C4CCC(=O)C=C4CCC3C1CCC2(O)C(F)(F)C(F)(F)F (stereo not drawn)	5/5
CC#C[C@]1(O)CC[C@H]2[C@@H]3CCC4=CC(=O)CCC4=C3[C@@H](c3ccc(N(C)C)cc3)C[C@@]21C [RU 486, reference compound]	1/5

Here's the next entry for you.
// query What does the data say about its Complete Inhibition of Pregnancy (empty uteri) N#/N? Entry: CCNC(=O)ON=Cc1ccc(C2CC3(C)C(CCC3(O)C(F)(F)C(F)(F)F)C3CCC4=CC(=O)CCC4=C23)cc1 (stereo not drawn)
// result 4/4

====

# Tested on: pregnancy in rats
# method_notes: Early abortive action in rats after subcutaneous administration from the 5th to 7th day of pregnancy
# Assay type: in vivo, rat
# measurement_parameters: s.c., day 5-7 of pregnancy, 1 mg/animal/day
experimental_readout: Complete Inhibition of Pregnancy (empty uteri)
One number for each entry.

molecule	reported_result
CC#C[C@]1(O)CC[C@H]2[C@@H]3CCC4=CC(=O)CCC4=C3[C@@H](c3ccc(N(C)C)cc3)C[C@@]21C [RU 486, reference compound]	20
CC(=O)c1ccc([C@H]2C[C@@]3(C)[C@@H](CC[C@@]3(O)C(F)(F)C(F)(F)F)[C@@H]3CCC4=CC(=O)CCC4=C32)cc1 [ZK 230 211, reference compound]	75
CC12CC(c3ccc(C=NO)cc3)C3=C4CCC(=O)C=C4CCC3C1CCC2(O)C(F)(F)F (stereo not drawn)	100

Please give Complete Inhibition of Pregnancy (empty uteri) for each item listed below.
1. CC12CC(c3ccc(C=NO)cc3)C3=C4CCC(=O)C=C4CCC3C1CCC2(O)C(F)(F)C(F)(F)F (stereo not drawn)
2. COC1(C(F)(F)C(F)(F)F)CCC2C3CCC4=CC(=O)CCC4=C3C(c3ccc(C=NO)cc3)CC21C (stereo not drawn)
3. CCNC(=O)ON=Cc1ccc(C2CC3(C)C(CCC3(O)C(F)(F)C(F)(F)F)C3CCC4=CC(=O)CCC4=C23)cc1 (stereo not drawn)

// result
100
50
100

====

# Tested on: Progesterone Receptor
# method_notes: Receptor bond: relative molar binding affinity to the progesterone receptor
# measurement_parameters: Progesterone = 100%
Please respond with reported Relative Molar Binding-affinity RBA (%) to the Progesterone Receptor for every item in the list.
Give bare numbers, in %.

Some solved entries appear below for comparison.
                                   compound          target_system  unit_name  reported_result
0  CCNC(=O)ON=Cc1ccc(C2CC3(C)C(CCC3(O)C(F)(F)F)C3CCC4=CC(=O)CCC4=C23)cc1 (stereo not shown)  Progesterone Receptor          %               98
1  CC(=O)ON=Cc1ccc(C2CC3(C)C(CCC3(O)C(F)(F)C(F)(F)F)C3CCC4=CC(=O)CCC4=C23)cc1 (stereo not shown)  Progesterone Receptor          %              0.5

Please give Relative Molar Binding-affinity RBA (%) to the Progesterone Receptor for each item listed below.
1. CC12CC(c3ccc(C=NO)cc3)C3=C4CCC(=O)C=C4CCC3C1CCC2(O)C(F)(F)C(F)(F)F (stereo not shown)
2. CN(C)c1ccc([C@H]2C[C@]3(C)[C@@H](CC[C@]3(O)CCCO)[C@@H]3CCC4=CC(=O)CCC4=C32)cc1 [Onapristone, reference compound]
3. CC12CC(c3ccc(C=NO)cc3)C3=C4CCC(=O)C=C4CCC3C1CCC2(O)C(F)(F)F (stereo not shown) [Compound No. 2]
4. CCNC(=O)ON=Cc1ccc(C2CC3(C)C(CCC3(O)C(F)(F)C(F)(F)F)C3CCC4=CC(=O)CCC4=C23)cc1 (stereo not shown)
5. CC12CC(c3ccc(C=NO)cc3)C3=C4CCC(=O)C=C4CCC3C1CCC2(O)C(F)(F)F (stereo not shown) [Example 1]

// result
1. 23
2. 22
3. 123
4. 230
5. 272
